Values were extracted from patent US20250237662A1.

This listing pairs binders with measured kon.
# assay.system: humanized therapeutic monoclonal antibody IgG1 (hIgG1)
# assay.protocol: SPR (Biacore T200), mAb captured by anti-rabbit mAb on CM5, antigen 80-0 nM, 1:1 fit

# example entries with known answers
QUERY: Reported kon for rabbit anti-human IgG monoclonal antibody clone 16F5 (antibody, V domains shown) VH: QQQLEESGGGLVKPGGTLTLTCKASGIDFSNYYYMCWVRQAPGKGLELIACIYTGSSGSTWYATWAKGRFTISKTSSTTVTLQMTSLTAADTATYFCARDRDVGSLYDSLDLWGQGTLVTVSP VL: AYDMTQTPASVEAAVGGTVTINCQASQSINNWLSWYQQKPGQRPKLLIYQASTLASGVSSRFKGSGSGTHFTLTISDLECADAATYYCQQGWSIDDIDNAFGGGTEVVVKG : what is it?
RESULT: 173000 M⁻¹ s⁻¹

QUERY: Again, but for rabbit anti-human IgG monoclonal antibody clone 9E6 (antibody, V domains shown) VH: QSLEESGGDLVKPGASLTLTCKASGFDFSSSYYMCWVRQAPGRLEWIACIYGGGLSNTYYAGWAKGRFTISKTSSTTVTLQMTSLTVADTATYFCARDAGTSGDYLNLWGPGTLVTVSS VL: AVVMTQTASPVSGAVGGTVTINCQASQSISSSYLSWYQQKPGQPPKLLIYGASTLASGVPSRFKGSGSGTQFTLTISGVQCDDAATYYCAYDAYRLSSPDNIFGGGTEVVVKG
RESULT: 143000 M⁻¹ s⁻¹

QUERY: Same read-out for rabbit anti-human IgG monoclonal antibody clone 11G5 (antibody, V domains shown) VH: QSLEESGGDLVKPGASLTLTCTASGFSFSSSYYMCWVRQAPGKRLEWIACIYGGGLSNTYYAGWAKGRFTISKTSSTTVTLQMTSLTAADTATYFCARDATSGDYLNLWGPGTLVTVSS VL: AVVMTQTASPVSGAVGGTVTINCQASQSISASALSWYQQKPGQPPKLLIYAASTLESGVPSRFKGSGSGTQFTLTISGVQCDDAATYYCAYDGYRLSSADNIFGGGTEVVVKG ?
RESULT: 135000 M⁻¹ s⁻¹

Query binder follows.
QUERY: Can you look up the measured kon of rabbit anti-human IgG monoclonal antibody clone 2C5 (antibody, V domains shown) VH: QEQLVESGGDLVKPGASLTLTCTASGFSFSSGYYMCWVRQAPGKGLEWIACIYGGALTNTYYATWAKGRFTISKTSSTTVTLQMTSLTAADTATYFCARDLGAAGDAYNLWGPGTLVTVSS VL: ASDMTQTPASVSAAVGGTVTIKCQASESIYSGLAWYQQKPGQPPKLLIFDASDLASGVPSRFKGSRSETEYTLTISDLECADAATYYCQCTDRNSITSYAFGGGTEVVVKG for me?
RESULT: 137000 M⁻¹ s⁻¹
